- ASSAY REMARKS: In vivo performance of polyserine-naltrexone conjugate lot BB-272, serum naltrexone by ELISA
- EXPERIMENTAL CONDITIONS: male, Sprague Dawley, rat, in vivo, po, 3.6 mg
READOUT TYPE: concentration at 6 h (ng/mL)

- MOLECULE: "O=C1CC[C@@]2(O)[C@H]3Cc4ccc(O)c5c4[C@@]2(CCN3CC2CC2)[C@H]1O5 [Naltrexone]"
  READOUT TYPE: "concentration at 6 h"
  MEASURED VALUE: 9

====

compounds and their reported Pronase (release of active agent from peptide conjugate)
- System: protease (type XIV, pronase)
- EXPERIMENTAL CONDITIONS: Streptomyces griseus, 24 h, pH 8.4
READOUT TYPE: Pronase (release of active agent from peptide conjugate) (%)

- COMPOUND: "CCN(CC)CCNC(=O)c1cc(Cl)c(N)cc1OC [Metoclopramide]"
  SYSTEM UNDER TEST: "protease (type XIV, pronase)"
  SCALE UNIT: "%"
  MEASURED VALUE: 6.50
- COMPOUND: "Cc1ncc([N+](=O)[O-])n1CCO [Metronidazole]"
  SYSTEM UNDER TEST: "protease (type XIV, pronase)"
  SCALE UNIT: "%"
  MEASURED VALUE: 28.90
- COMPOUND: "Cc1ccc(C)c(OCCCC(C)(C)C(=O)O)c1 [Gemfibrozil]"
  SYSTEM UNDER TEST: "protease (type XIV, pronase)"
  SCALE UNIT: "%"
  MEASURED VALUE: 2
- COMPOUND: "Nc1ccc(O)c(C(=O)O)c1 [Mesalamine, 5-amino-2-hydroxybenzoic acid]"
  SYSTEM UNDER TEST: "protease (type XIV, pronase)"
  SCALE UNIT: "%"
  MEASURED VALUE: 46

====

- ASSAY REMARKS: In vivo performance of polyglutamic acid-AZT conjugate lot TM-113, plasma AZT by ELISA
- Parameters: species or system Sprague-Dawley rats
- EXPERIMENTAL CONDITIONS: male, Sprague-Dawley, rat, plasma, po, 15 mg/kg

- SMILES: "Cc1cn([C@H]2C[C@H](N=[N+]=[N-])[C@@H](CO)O2)c(=O)[nH]c1=O"
  SCALE UNIT: "min"
  Tmax: 30

====

- ASSAY REMARKS: In vivo performance of polyserine-naltrexone conjugate lot BB-272, serum naltrexone by ELISA
- EXPERIMENTAL CONDITIONS: male, Sprague Dawley, rat, in vivo, po, 3.6 mg
READOUT TYPE: concentration at 4 h (ng/mL)

- COMPOUND: "O=C1CC[C@@]2(O)[C@H]3Cc4ccc(O)c5c4[C@@]2(CCN3CC2CC2)[C@H]1O5 [Naltrexone]"
  SCALE UNIT: "ng/mL"
  MEASURED VALUE: 11

====

- ASSAY REMARKS: in vivo
- EXPERIMENTAL CONDITIONS: male, Sprague-Dawley, rat, plasma, po
READOUT TYPE: Tmax (min)

- SMILES: "Cc1cn([C@H]2C[C@H](N=[N+]=[N-])[C@@H](CO)O2)c(=O)[nH]c1=O"
  MEASURED VALUE: 30

====

- ASSAY REMARKS: In vivo performance of polyglutamic acid-AZT conjugate lot TM-113, plasma AZT by ELISA
- Parameters: species or system Sprague-Dawley rats
- EXPERIMENTAL CONDITIONS: male, Sprague-Dawley, rat, plasma, po, 15 mg/kg, 15 mg/kg of AZT, lot TM-113, 8 hours

- SMILES: "Cc1cn([C@H]2C[C@H](N=[N+]=[N-])[C@@H](CO)O2)c(=O)[nH]c1=O"
  concentration at 8 h: "11 ng/mL"

====

- Tested on: pancreatin
- EXPERIMENTAL CONDITIONS: pig, 24 h, pH 7.5
Measured Intestine (simulator, release of active agent from peptide conjugate), listed per entry.
READOUT TYPE: Intestine (simulator, release of active agent from peptide conjugate) (%)

- COMPOUND: "Nc1ccc(O)c(C(=O)O)c1 [Mesalamine, 5-amino-2-hydroxybenzoic acid]"
  MEASURED VALUE: 10
- COMPOUND: "Cc1ccc(C)c(OCCCC(C)(C)C(=O)O)c1"
  MEASURED VALUE: 3.60
- COMPOUND: "Cc1ncc([N+](=O)[O-])n1CCO"
  MEASURED VALUE: 64.30
- COMPOUND: "CCN(CC)CCNC(=O)c1cc(Cl)c(N)cc1OC [Metoclopramide]"
  MEASURED VALUE: 95.20

====

- ASSAY REMARKS: In vivo performance of polyglutamic acid-AZT conjugate lot TM-113, plasma AZT by ELISA
- Set-up: species or system Sprague-Dawley rats
- EXPERIMENTAL CONDITIONS: male, Sprague-Dawley, rat, plasma, po, 15 mg/kg, 15 mg/kg of AZT, lot TM-113, 0.5 hours

- SMILES: "Cc1cn([C@H]2C[C@H](N=[N+]=[N-])[C@@H](CO)O2)c(=O)[nH]c1=O"
  concentration at 0.5 h: "2390 ng/mL"

====

- ASSAY REMARKS: In vivo performance of polyglutamic acid-AZT conjugate lot TM-113, plasma AZT by ELISA
- Set-up: species or system Sprague-Dawley rats
- EXPERIMENTAL CONDITIONS: male, Sprague-Dawley, rat, plasma, po, 15 mg/kg, 15 mg/kg of AZT, lot TM-113, 5 hours
READOUT TYPE: concentration at 5 h (ng/mL)

- SMILES: "Cc1cn([C@H]2C[C@H](N=[N+]=[N-])[C@@H](CO)O2)c(=O)[nH]c1=O"
  MEASURED VALUE: 49

====

- ASSAY REMARKS: In vivo performance of polyserine-naltrexone conjugate lot BB-272, serum naltrexone by ELISA
- EXPERIMENTAL CONDITIONS: male, Sprague Dawley, rat, in vivo, po, 3.6 mg

- COMPOUND: "O=C1CC[C@@]2(O)[C@H]3Cc4ccc(O)c5c4[C@@]2(CCN3CC2CC2)[C@H]1O5 [Naltrexone]"
  concentration at 9 h, ng/mL: 3

====

- SYSTEM UNDER TEST: pepsin (Sus scrofa)
- Sequence (P00791 60-385): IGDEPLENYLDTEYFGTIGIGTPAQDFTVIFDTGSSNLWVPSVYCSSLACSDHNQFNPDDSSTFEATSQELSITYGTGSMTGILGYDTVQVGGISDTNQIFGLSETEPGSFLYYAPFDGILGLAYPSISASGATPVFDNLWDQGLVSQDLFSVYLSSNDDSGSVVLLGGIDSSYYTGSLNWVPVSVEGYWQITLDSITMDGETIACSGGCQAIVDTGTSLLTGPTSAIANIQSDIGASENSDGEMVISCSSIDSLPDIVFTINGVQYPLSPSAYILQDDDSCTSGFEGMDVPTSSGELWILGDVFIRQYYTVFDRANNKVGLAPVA
- EXPERIMENTAL CONDITIONS: pig, 4 h, pH 1.2
READOUT TYPE: Stomach (simulator, release of active agent from peptide conjugate) (%)

- COMPOUND: "Nc1ccc(O)c(C(=O)O)c1 [Mesalamine, 5-amino-2-hydroxybenzoic acid]"
  SYSTEM UNDER TEST: "pepsin (Sus scrofa)"
  MEASURED VALUE: 11
- COMPOUND: "Cc1ncc([N+](=O)[O-])n1CCO"
  SYSTEM UNDER TEST: "pepsin (Sus scrofa)"
  MEASURED VALUE: 20.20
- COMPOUND: "Cc1ccc(C)c(OCCCC(C)(C)C(=O)O)c1"
  SYSTEM UNDER TEST: "pepsin (Sus scrofa)"
  MEASURED VALUE: 0
- COMPOUND: "CCN(CC)CCNC(=O)c1cc(Cl)c(N)cc1OC [Metoclopramide]"
  SYSTEM UNDER TEST: "pepsin (Sus scrofa)"
  MEASURED VALUE: 0

====

- ASSAY REMARKS: In vivo performance of polyglutamic acid-AZT conjugate lot TM-113, plasma AZT by ELISA
- Design: species or system Sprague-Dawley rats
- EXPERIMENTAL CONDITIONS: male, Sprague-Dawley, rat, plasma, po, 15 mg/kg
READOUT TYPE: Cmax (ng/mL)

- SMILES: "Cc1cn([C@H]2C[C@H](N=[N+]=[N-])[C@@H](CO)O2)c(=O)[nH]c1=O"
  READOUT TYPE: "Cmax"
  SCALE UNIT: "ng/mL"
  MEASURED VALUE: 2390

====

- ASSAY REMARKS: In vivo performance of polyserine-naltrexone conjugate lot BB-272, serum naltrexone by ELISA
- EXPERIMENTAL CONDITIONS: male, Sprague Dawley, rat, in vivo, po, 3.6 mg
READOUT TYPE: concentration at 2 h (ng/mL)

- COMPOUND: "O=C1CC[C@@]2(O)[C@H]3Cc4ccc(O)c5c4[C@@]2(CCN3CC2CC2)[C@H]1O5 [Naltrexone]"
  MEASURED VALUE: 46

====

- ASSAY REMARKS: In vivo performance of polyglutamic acid-AZT conjugate lot TM-113, plasma AZT by ELISA
- Set-up: species or system Sprague-Dawley rats
- EXPERIMENTAL CONDITIONS: male, Sprague-Dawley, rat, plasma, po, 15 mg/kg, 15 mg/kg of AZT, lot TM-113, 3 hours
READOUT TYPE: concentration at 3 h (ng/mL)

- SMILES: "Cc1cn([C@H]2C[C@H](N=[N+]=[N-])[C@@H](CO)O2)c(=O)[nH]c1=O"
  MEASURED VALUE: 223
